B1: ZNF232 (parent)
chain: GKAYGWCSELIRHRRVHARKEPSH

Variants of: B1
Assay: protein stability index of a GFP-peptide fusion (GPS, HEK-293T) (PSI 1-6); higher = more stable;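 note: lentivirally expressed fusions sorted by FACS into six bins by GFP to DsRed ratio, PSI derived from sequencing read proportions per bin multiplied by bin number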
Settings: c terminus: a fixed tail appended

>  <variant designation>
A3R

>  <protein stability index>
2.92

$$$$
>  <variant designation>
R12G

>  <protein stability index>
2.92

$$$$
>  <variant designation>
R15Q

>  <protein stability index>
3.07

$$$$
>  <variant designation>
H24S

>  <protein stability index>
3.07

$$$$
>  <variant designation>
S8W

>  <protein stability index>
1.97

$$$$
>  <variant designation>
K2Y

>  <protein stability index>
3.5

$$$$
>  <variant designation>
H24C

>  <protein stability index>
2.78

$$$$
>  <variant designation>
V16S

>  <protein stability index>
3.48

$$$$
>  <variant designation>
G1W

>  <protein stability index>
1.97

$$$$
>  <variant designation>
H24T

>  <protein stability index>
2.97

$$$$
>  <variant designation>
S23F

>  <protein stability index>
2.43

$$$$
>  <variant designation>
E21W

>  <protein stability index>
2.19

$$$$
>  <variant designation>
E21L

>  <protein stability index>
1.91

$$$$
>  <variant designation>
W6C

>  <protein stability index>
2.6

$$$$
>  <variant designation>
R14K

>  <protein stability index>
2.61

$$$$
>  <variant designation>
G5Q

>  <protein stability index>
3.09

$$$$
>  <variant designation>
L10N

>  <protein stability index>
3.54

$$$$
>  <variant designation>
V16W

>  <protein stability index>
2.55

$$$$
>  <variant designation>
K2L

>  <protein stability index>
2.61

$$$$
>  <variant designation>
E21T

>  <protein stability index>
2.69

$$$$
>  <variant designation>
L10V

>  <protein stability index>
3.54

$$$$
>  <variant designation>
S23K

>  <protein stability index>
3.49

$$$$
>  <variant designation>
L10I

>  <protein stability index>
2.84

$$$$
>  <variant designation>
I11F

>  <protein stability index>
2.79

$$$$
>  <variant designation>
W6V

>  <protein stability index>
3.59

$$$$
>  <variant designation>
I11T

>  <protein stability index>
3.34

$$$$
>  <variant designation>
C7N

>  <protein stability index>
4.19

$$$$
>  <variant designation>
W6Y

>  <protein stability index>
2.95

$$$$
>  <variant designation>
K20Q

>  <protein stability index>
2.8

$$$$
>  <variant designation>
H17R

>  <protein stability index>
3.03

$$$$
>  <variant designation>
P22D

>  <protein stability index>
3.14

$$$$
>  <variant designation>
R15F

>  <protein stability index>
2.45

$$$$
>  <variant designation>
R14A

>  <protein stability index>
2.9

$$$$
>  <variant designation>
K2N

>  <protein stability index>
2.62

$$$$
>  <variant designation>
R12M

>  <protein stability index>
2.25

$$$$
>  <variant designation>
S8P

>  <protein stability index>
3.21

$$$$
>  <variant designation>
S8M

>  <protein stability index>
1.94

$$$$
>  <variant designation>
E9D

>  <protein stability index>
3.12

$$$$
>  <variant designation>
H24D

>  <protein stability index>
3.61

$$$$
>  <variant designation>
K2H

>  <protein stability index>
3.01

$$$$
>  <variant designation>
H17M

>  <protein stability index>
2.75

$$$$
>  <variant designation>
R14I

>  <protein stability index>
2.04

$$$$
>  <variant designation>
L10K

>  <protein stability index>
3.08

$$$$
>  <variant designation>
A18E

>  <protein stability index>
3.74

$$$$
>  <variant designation>
E21M

>  <protein stability index>
2.37

$$$$
>  <variant designation>
H13S

>  <protein stability index>
2.57

$$$$
>  <variant designation>
R14Y

>  <protein stability index>
2.05

$$$$
>  <variant designation>
R19I

>  <protein stability index>
3.09

$$$$
>  <variant designation>
H13T

>  <protein stability index>
3.16

$$$$
>  <variant designation>
R14W

>  <protein stability index>
1.94

$$$$
>  <variant designation>
P22F

>  <protein stability index>
1.8

$$$$
>  <variant designation>
L10R

>  <protein stability index>
3.35

$$$$
>  <variant designation>
R14F

>  <protein stability index>
2.33

$$$$
>  <variant designation>
S23N

>  <protein stability index>
3.05

$$$$
>  <variant designation>
G5F

>  <protein stability index>
2.5

$$$$
>  <variant designation>
C7P

>  <protein stability index>
3.61

$$$$
>  <variant designation>
K20G

>  <protein stability index>
2.86

$$$$
>  <variant designation>
A18Y

>  <protein stability index>
2.76

$$$$
>  <variant designation>
K2R

>  <protein stability index>
2.79

$$$$
>  <variant designation>
G5A

>  <protein stability index>
3.55

$$$$
>  <variant designation>
S23G

>  <protein stability index>
3.32

$$$$
>  <variant designation>
Y4M

>  <protein stability index>
3.07

$$$$
>  <variant designation>
H17V

>  <protein stability index>
2.84

$$$$

Values from the supplement of paper PMC10567573
